Attribute: pIC50
Biological target: ALK (baculovirus expressed human ALK kinase domain F1098-K1410) (Homo sapiens, UniProt Q9UM73)
Sequence (Q9UM73 1098-1410): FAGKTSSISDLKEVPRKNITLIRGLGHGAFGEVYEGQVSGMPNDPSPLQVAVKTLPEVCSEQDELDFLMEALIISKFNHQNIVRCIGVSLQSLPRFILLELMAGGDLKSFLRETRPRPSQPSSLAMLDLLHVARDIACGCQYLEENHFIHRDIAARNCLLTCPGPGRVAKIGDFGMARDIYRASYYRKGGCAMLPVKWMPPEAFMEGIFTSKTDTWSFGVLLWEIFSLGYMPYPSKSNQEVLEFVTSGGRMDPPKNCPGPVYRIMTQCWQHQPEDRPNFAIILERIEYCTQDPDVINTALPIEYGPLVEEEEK
pIC50: −log10 of the molar value.

For orientation, consider the following solved cases.
[
  {
    "smilesText": "COCCOc1cc2c(c(-c3ccc(O)c(Cl)c3)nc3[nH]nc(C)c32)c(F)c1OC",
    "pIC50": "≥ 7.00"
  },
  {
    "smilesText": "COc1cc(OC)c2c(-c3ccc(O)cc3)nc3[nH]nc(C)c3c2c1",
    "pIC50": "≥ 7.00"
  },
  {
    "smilesText": "Cc1n[nH]c2nc(-c3cccc(Cl)c3)c3ccc4c(c3c12)OCCO4",
    "pIC50": "< 5.70"
  },
  {
    "smilesText": "COc1c(OCCN2CCN(C(C)C)CC2)cc(F)c2c(-c3ccc(O)c(Cl)c3)nc3[nH]nc(C)c3c12",
    "pIC50": "≥ 7.00"
  },
  {
    "smilesText": "COc1c(OCCN2CCCC2)cc(F)c2c(-c3ccc(Cl)c(O)c3)nc3[nH]nc(C)c3c12",
    "pIC50": "≥ 7.00"
  },
  {
    "smilesText": "Cc1n[nH]c2nc(-c3ccc(N)nc3)c3c(F)cc(O)c(F)c3c12",
    "pIC50": "< 5.70"
  },
  {
    "smilesText": "COc1c(OCCN2CCSCC2)cc(F)c2c(-c3ccc(O)c(Cl)c3)nc3[nH]nc(C)c3c12",
    "pIC50": "≥ 7.00"
  },
  {
    "smilesText": "Cc1n[nH]c2nc(-c3cc(Cl)c(O)cc3F)c3c(F)c4c(cc3c12)OCCO4",
    "pIC50": "≥ 7.00"
  },
  {
    "smilesText": "COCCOc1cc2c(cc1OC)c(-c1cc(Br)c(O)cc1F)nc1[nH]nc(C)c12",
    "pIC50": "≥ 7.00"
  },
  {
    "smilesText": "COc1c(OCCN2CCC(N3CCCCC3)CC2)cc(F)c2c(-c3ccc(O)c(Cl)c3)nc3[nH]nc(C)c3c12",
    "pIC50": "≥ 7.00"
  }
]

Given the entry Cc1n[nH]c2nc(-c3ccc4[nH]ccc4c3)c3c(F)cc(O)c(F)c3c12 , report its measured pIC50. 6.00 to 7.00

Given the entry COc1cc2c(-c3ccc(O)cc3)nc3[nH]nc(C(F)(F)F)c3c2cc1OC , report its measured pIC50. 6.00 to 7.00

Given the entry COCCOc1ccc2c(-c3ccc(O)c(Cl)c3)nc3[nH]nc(C)c3c2c1OCCOC , report its measured pIC50. ≥ 7.00

----------
pIC50: −log10 of the molar value.
List of pIC50 tested on ALK (baculovirus expressed human ALK kinase domain F1098-K1410) (Homo sapiens).

For orientation, consider the following solved cases.
[
  {
    "smilesText": "COCCOc1cc(F)c2c(-c3cc(Br)c(O)cc3F)nc3[nH]nc(C)c3c2c1F",
    "pIC50": "≥ 7.00"
  },
  {
    "smilesText": "CCN(CC)CCN(C)CCOc1cc(F)c2c(-c3ccc(O)c(Cl)c3)nc3[nH]nc(C)c3c2c1OC",
    "pIC50": "≥ 7.00"
  },
  {
    "smilesText": "COCCOc1cc2c(-c3ccc(O)c(Cl)c3)nc3[nH]nc(C)c3c2cc1OCCOC",
    "pIC50": "6.00 to 7.00"
  },
  {
    "smilesText": "COCCOc1ccc2c(-c3ccc(O)c(Cl)c3)nc3[nH]nc(C)c3c2c1OC",
    "pIC50": "≥ 7.00"
  },
  {
    "smilesText": "CCN(CC)CCOc1cc(F)c2c(-c3ccc(O)c(Cl)c3)nc3[nH]nc(C)c3c2c1OC",
    "pIC50": "≥ 7.00"
  },
  {
    "smilesText": "CCOc1cc(-c2nc3[nH]nc(C)c3c3cc(OC)c(OC)cc23)ccc1O",
    "pIC50": "6.00 to 7.00"
  },
  {
    "smilesText": "COc1c(OCCN(C(C)C)C(C)C)cc(F)c2c(-c3ccc(O)c(Cl)c3)nc3[nH]nc(C)c3c12",
    "pIC50": "≥ 7.00"
  }
]

pIC50 of COc1ccc2c(-c3ccc(O)c(Cl)c3)nc3[nH]nc(C)c3c2c1OCC1CCN(C)CC1 on ALK (baculovirus expressed human ALK kinase domain F1098-K1410) (Homo sapiens)? ≥ 7.00

----------
List of IC50 tested on ALK (baculovirus expressed human ALK kinase domain F1098-K1410) (Homo sapiens).

[
  {
    "smilesText": "CCN1CCN(CCOc2cc3c(c(-c4ccc(O)c(Cl)c4)nc4[nH]nc(C)c43)c(F)c2OC)CC1",
    "targetOfAssay": "ALK (baculovirus expressed human ALK kinase domain F1098-K1410) (Homo sapiens)",
    "measurementType": "IC50",
    "result": "≤ 99 nM"
  },
  {
    "smilesText": "COc1c(OCCN2CCN(c3ccccn3)CC2)cc(F)c2c(-c3ccc(O)c(Cl)c3)nc3[nH]nc(C)c3c12",
    "targetOfAssay": "ALK (baculovirus expressed human ALK kinase domain F1098-K1410) (Homo sapiens)",
    "measurementType": "IC50",
    "result": "≤ 99 nM"
  },
  {
    "smilesText": "COc1cc2c(c(-c3ccc(O)c(Cl)c3)nc3[nH]nc(C)c32)c(Cl)c1OC",
    "targetOfAssay": "ALK (baculovirus expressed human ALK kinase domain F1098-K1410) (Homo sapiens)",
    "measurementType": "IC50",
    "result": "100 to 999 nM"
  }
]

Please look at the following compound next.
IC50 of COCc1n[nH]c2nc(-c3ccc(O)c(Cl)c3)c3cc(OC)c(OC)cc3c12 on ALK (baculovirus expressed human ALK kinase domain F1098-K1410) (Homo sapiens)? 100 to 999 nM

----------
Attribute: IC50
Target: ALK (baculovirus expressed human ALK kinase domain F1098-K1410) (Homo sapiens)
Construct: baculovirus expressed human ALK kinase domain F1098-K1410; made in house
Test: Luciferase-Coupled Chemiluminescent Kinase assay (LCCA), ALK biochemical activity
Details: inhibition of ALK; mean values; 1 μM ATP, 4 μM poly-AEKY, 12 nM ALK, 2 hours ambient temperature

For orientation, consider the following solved cases.
[
  {
    "compound": "COC[C@@H]1CCCN1CCOc1cc(F)c2c(-c3ccc(O)c(Cl)c3)nc3[nH]nc(C)c3c2c1OC",
    "result": "≤ 99 nM"
  },
  {
    "compound": "COCCOc1cc2c(cc1OC)c(-c1ccc(O)c(Br)c1)nc1[nH]nc(C)c12",
    "result": "≤ 99 nM"
  },
  {
    "compound": "COc1ccc2c(-c3ccc(O)cc3)nc3[nH]nc(C)c3c2c1OCC1CCNCC1",
    "result": "≤ 99 nM"
  },
  {
    "compound": "COc1c(OCCN2CCN(C)CC2)cc(F)c2c(-c3ccc(O)c(Cl)c3)nc3[nH]nc(C)c3c12",
    "result": "≤ 99 nM"
  }
]

Given the entry Cc1n[nH]c2nc(-c3ccc(O)cc3F)c3c(F)cc4c(c3c12)OCCO4 , report its measured IC50. ≤ 99 nM

Given the entry COc1c(OCC2CCN(C)CC2)cc(F)c2c(-c3ccc(O)c(Br)c3)nc3[nH]nc(C)c3c12 , report its measured IC50. ≤ 99 nM

Given the entry COc1cc2c(c(-c3ccc(O)cc3)nc3[nH]nc(C)c32)c(F)c1OC , report its measured IC50. ≤ 99 nM

Given the entry Cc1n[nH]c2nc(-c3ccc(N)s3)c3c(F)cc(O)c(F)c3c12 , report its measured IC50. 100 to 999 nM

Given the entry COCCOc1cc2c(-c3ccc(O)c(Br)c3)nc3[nH]nc(C)c3c2cc1OCCOC , report its measured IC50. 100 to 999 nM

Given the entry COc1ccc2c(-c3ccc(O)c(Cl)c3)nc3[nH]nc(C)c3c2c1OCCN1CCOCC1 , report its measured IC50. 100 to 999 nM

Given the entry COc1cc2c(-c3ccc(O)c(Cl)c3)nc3[nH]nc(C)c3c2cc1OCC1CCOCC1 , report its measured IC50. ≤ 99 nM

Given the entry COc1cc2c(-c3cc(C)c(O)cc3C)nc3[nH]nc(C)c3c2cc1OC , report its measured IC50. 100 to 999 nM

Given the entry COc1c(OCCCN2CCN(C)CC2)cc(F)c2c(-c3ccc(O)c(Cl)c3)nc3[nH]nc(C)c3c12 , report its measured IC50. ≤ 99 nM

Given the entry COc1cc2c(cc1F)c(-c1ccc(O)cc1)nc1[nH]nc(C)c12 , report its measured IC50. 100 to 999 nM

Given the entry CCOc1cc2c(-c3ccc(O)cc3)nc3[nH]nc(C)c3c2cc1OC , report its measured IC50. 100 to 999 nM

Given the entry COCCOc1cc(F)c2c(-c3cc(Cl)c(O)cc3F)nc3[nH]nc(C)c3c2c1F , report its measured IC50. ≤ 99 nM

Given the entry CCOc1cc2c(cc1OC)c(-c1ccc(O)c(Cl)c1)nc1[nH]nc(C)c12 , report its measured IC50. 100 to 999 nM

Given the entry COc1cc2c(-c3ccc(O)cc3)nc3[nH]nc(CNCc4ccccc4)c3c2cc1OC , report its measured IC50. 100 to 999 nM

Given the entry Cc1n[nH]c2nc(-c3cnc(N)s3)c3c(F)cc(O)c(F)c3c12 , report its measured IC50. ≤ 99 nM

Given the entry COc1ccc2c(-c3ccc(O)c(Br)c3)nc3[nH]nc(C)c3c2c1OCCN1CCOCC1 , report its measured IC50. 100 to 999 nM

Given the entry COc1cc2c(-c3ccc(O)cc3)nc3[nH]nc(C)c3c2cc1OCC1CCN(C)CC1 , report its measured IC50. ≤ 99 nM

Given the entry COc1ccc2c(-c3ccc(O)c(Br)c3)nc3[nH]nc(C)c3c2c1OC , report its measured IC50. ≤ 99 nM

Given the entry COc1cc2c(-c3ccc(O)c(Cl)c3)nc3[nH]nc(C)c3c2cc1OCC1CCN(C)CC1 , report its measured IC50. ≤ 99 nM

Given the entry COc1ccc2c(-c3ccc(O)cc3)nc3[nH]nc(C)c3c2c1 , report its measured IC50. ≤ 99 nM

Given the entry COc1c(OCCCN2CCCCC2)cc(F)c2c(-c3ccc(O)c(Cl)c3)nc3[nH]nc(C)c3c12 , report its measured IC50. ≤ 99 nM
